# Tested on: K562 CRISPRi cells
# protocol-text: Perturb-seq pooled growth measurement (sgRNA counts, growth phenotype γ, relative activity)
# Format: cell-based, human
# run-conditions: γ relative to perfectly matched sgRNA (_00) of the same gene, day 10
relative_activity_day10 for assorted substances
Field format: numeric only.

Recorded results for 2 substances are shown here.
INSERT INTO assay_data (substance, target_under_test, endpoint_result) VALUES
  ('GINS1_ −_25388381.23-P1P2_08 (guide GGACTAGAGCGAAAGGAGTG; listed as DNA, chemistry not fully specified)', 'K562 CRISPRi cells', 0.9436),
  ('POLR1D_ + _28196016.23-P1_07 (guide GGGAAGCAAGGAGCGACCGA; listed as DNA, chemistry not fully specified)', 'K562 CRISPRi cells', 0.3911);

What is its relative_activity_day10 for K562 CRISPRi cells? Entry: RPS14_ + _149829238.23-P1P2_02 (guide GAGGCCCTGGCGCGACAATC; listed as DNA, chemistry not fully specified)
0.7666
